Test system: UO-31
measurementNotes: NCI tumour cell line growth inhibition, 48 h
Activity calls are given as the source filed them. No stated cut-off is given here; in the data, active = GI50 up to about 1.1 µM and inactive = higher.

- compound: "C[N+](C)([O-])CCCNc1c2ccccc2nc2cccc([N+](=O)[O-])c12"
  assayTarget: "UO-31"
  GI50: "1.41 µM (inactive)"
- compound: "O=[N+]([O-])c1cnccc1-n1nnc2ccccc21"
  assayTarget: "UO-31"
  GI50: "19.4 µM (inactive)"
- compound: "BrCC[P+](c1ccccc1)(c1ccccc1)c1ccccc1"
  assayTarget: "UO-31"
  GI50: "4.75 µM (inactive)"
- compound: "CCCCCN(CCCCC)C(=O)[C@@H](CCC(=O)OCc1ccccc1)NC(=O)c1cc2ccccc2[nH]1"
  assayTarget: "UO-31"
  GI50: "> 100 µM (inactive)"
- compound: "CC1(C)C(C#N)=[N+]([O-])C(C)(C)N1O"
  assayTarget: "UO-31"
  GI50: "> 100 µM (inactive)"
- compound: "CCC(=O)c1cc(C(=O)C(=S)SC)cc(C(=O)C(=S)SC)c1"
  assayTarget: "UO-31"
  GI50: "48.4 µM (inactive)"
- compound: "COC1/C=C/C=C(/C)Cc2cc(O)c(Cl)c(c2)N(C)C(=O)CC(OC(=O)C(C)C)C2(C)OC2C(C)C2CC1(O)NC(=O)O2 (centres undefined)"
  assayTarget: "UO-31"
  GI50: "< 0.01 µM (active)"
- compound: "COc1ccc2c(c1)C(N)=C(Cc1ccncc1)C2=O"
  assayTarget: "UO-31"
  GI50: "46 µM (inactive)"
- compound: "NC(=O)c1ccc2c(c1)S(=O)(=O)c1ccccc1C2=O"
  assayTarget: "UO-31"
  GI50: "> 100 µM (inactive)"

---

Tested on: NCI-H460
measurementNotes: NCI tumour cell line growth inhibition, 48 h
The source made the active and inactive calls. No stated cut-off is given here; in the data, active = GI50 up to about 1.1 µM and inactive = higher.
Possible outcomes: active, inactive

- compound: "CCOC(=O)C1=C(c2ccccc2)NC(c2ccccc2)=C(C(=O)OCC)c2c1c(=O)cc[nH]c2=O"
  assayTarget: "NCI-H460"
  labelValue: "inactive"
- compound: "NC(=O)N1N=C2c3ccccc3OC[C@H]2[C@@H]1c1ccccc1"
  assayTarget: "NCI-H460"
  labelValue: "inactive"
- compound: "COc1cccc2c(NNc3ccccc3)c3ccc([N+](=O)[O-])cc3nc12"
  assayTarget: "NCI-H460"
  labelValue: "inactive"
- compound: "COc1ccc(/C=C\\c2cc(OC)c(OC)c(OC)c2)cc1OC(=O)CCC(=O)O"
  assayTarget: "NCI-H460"
  labelValue: "active"
- compound: "COC(=O)c1nc(Cl)nc(Cl)c1Cl"
  assayTarget: "NCI-H460"
  labelValue: "inactive"
- compound: "CCC/C(=N\\NC(=S)N1CCN(c2ccccn2)CC1)c1ccccn1"
  assayTarget: "NCI-H460"
  labelValue: "active"
- compound: "COC(NC(=O)Nc1ccccc1C)(C(F)(F)F)C(F)(F)F"
  assayTarget: "NCI-H460"
  labelValue: "inactive"
- compound: "COc1ccc2c(c1)c(=O)c1c(NCCN(C)C)ccc3c(=O)n(CCN(C)C)c(=O)n2c31"
  assayTarget: "NCI-H460"
  labelValue: "active"
- compound: "Cc1ccc(S(=O)(=O)NC(=O)NC2=NC(C)(C)N(c3ccc(Cl)c(Cl)c3)C(N)=N2)cc1"
  assayTarget: "NCI-H460"
  labelValue: "inactive"
- compound: "CC(C)(C)c1cc(C2COC(=O)COCCOCC(=O)OCCOCCO2)cc(C(C)(C)C)c1O (configuration not stated)"
  assayTarget: "NCI-H460"
  labelValue: "inactive"
- compound: "COC1(C)CNCC(C)(C)NC(=O)C(C)(OC)CNCC(C)(C)NC1=O (configuration not stated)"
  assayTarget: "NCI-H460"
  labelValue: "inactive"
- compound: "O=[N+]([O-])c1ccc2c(c1)C1=NN(c3ccccc3)C(c3ccccc3Br)C1CCC2 (configuration not stated)"
  assayTarget: "NCI-H460"
  labelValue: "inactive"
- compound: "C=C(C)[C@@]1(OC(=O)c2cc([N+](=O)[O-])cc([N+](=O)[O-])c2)C[C@@H]2CCCC[C@@H]21"
  assayTarget: "NCI-H460"
  labelValue: "inactive"
- compound: "CCOC(=O)c1ccc(Nc2cnc3cc(C(F)(F)F)ccc3n2)cc1"
  assayTarget: "NCI-H460"
  labelValue: "inactive"
- compound: "c1ccc([P+](CCNCCNCC[P+](c2ccccc2)(c2ccccc2)c2ccccc2)(c2ccccc2)c2ccccc2)cc1"
  assayTarget: "NCI-H460"
  labelValue: "inactive"
- compound: "CCOC(=O)c1cc(-c2ccc(OC)cc2)c([N+](=O)[O-])[nH]1"
  assayTarget: "NCI-H460"
  labelValue: "inactive"
- compound: "CC(=O)Nc1ccc(-c2nnc(SCC(=O)Nc3ccccc3C)o2)cc1"
  assayTarget: "NCI-H460"
  labelValue: "inactive"
- compound: "C=C(C)[C@@H]1CC[C@]2(C)CC[C@]3(C)[C@H](CC[C@@H]4[C@@]5(C)CC[C@H](OC(=O)c6ccccc6)C(C)(C)[C@@H]5CC[C@]43C)[C@@H]12"
  assayTarget: "NCI-H460"
  labelValue: "inactive"
- compound: "N#CCCCCCOCCOCCOCCOCCOCCCCCC#N"
  assayTarget: "NCI-H460"
  labelValue: "inactive"
- compound: "C#CCC(N)(CO)C(=O)O (configuration not stated)"
  assayTarget: "NCI-H460"
  labelValue: "inactive"
- compound: "O=C(COc1ccc2c(=O)cc(-c3ccc(Cl)cc3)oc2c1)N1CCN(c2ccccc2)CC1"
  assayTarget: "NCI-H460"
  labelValue: "inactive"
- compound: "Nc1nc2ncn(CC(O)CO)c2c(=S)[nH]1 (configuration not stated)"
  assayTarget: "NCI-H460"
  labelValue: "inactive"
- compound: "CSc1nc(-c2ccccc2)c2c(n1)-c1ccccc1CC2"
  assayTarget: "NCI-H460"
  labelValue: "inactive"
- compound: "COc1ccc2nc3cc([N+](=O)[O-])ccc3c(Nc3ccc(S(=O)(=O)NC(C)=O)cc3)c2c1"
  assayTarget: "NCI-H460"
  labelValue: "inactive"
- compound: "Cn1c(=O)c(C(=O)NC(=O)NCCCCCOC(=O)CCCCCCCCCCC(=O)OCCCCCNC(=O)NC(=O)c2cn(Cc3ccccc3)c(=O)n(C)c2=O)cn(Cc2ccccc2)c1=O"
  assayTarget: "NCI-H460"
  labelValue: "inactive"
- compound: "CC1=CC(O)(c2ccc(-c3ccccc3Cl)cc2)OC1=O (configuration not stated)"
  assayTarget: "NCI-H460"
  labelValue: "inactive"
- compound: "Cc1nn(C(=O)c2ccc(Cl)cc2)c2c1C(c1ccccc1[N+](=O)[O-])SC(=N)N2 (configuration not stated)"
  assayTarget: "NCI-H460"
  labelValue: "inactive"
- compound: "CC(=O)C1(O)CCC2(O)C3(O)CC=C4CC(O)CCC4(C)C3CC(OC(=O)c3ccc(O)cc3)C12C (configuration not stated)"
  assayTarget: "NCI-H460"
  labelValue: "inactive"
- compound: "O=C(OCc1ccccc1)N1CCN(C(=O)OCc2ccccc2)CCN(C(=O)OCc2ccccc2)CCN(C(=O)OCc2ccccc2)CCN(C(=O)OCc2ccccc2)CC1"
  assayTarget: "NCI-H460"
  labelValue: "inactive"
- compound: "O=C1OCC(CN2CCC(n3c(=O)[nH]c4ccccc43)CC2)=C1c1ccccc1"
  assayTarget: "NCI-H460"
  labelValue: "inactive"
- compound: "N#Cc1c(Cl)c2cccnc2n2c1nc1ccccc12"
  assayTarget: "NCI-H460"
  labelValue: "inactive"
- compound: "O=C(c1ccccc1)N1C2C3CC(OCc4ccccc4)(OCc4ccccc4)C(O3)C21 (configuration not stated)"
  assayTarget: "NCI-H460"
  labelValue: "inactive"

---

Listed here: molecules with reported GI50 for HCT-15.

- molecule: "COc1ccccc1NC(=S)N/N=C(/c1ccccc1)c1ccccn1"
  resultOperator: "="
  GI50 / µM: 0.045
- molecule: "CC(/C=C/C(O)=C1/C(=O)CNC1=O)=C\\[C@@H](C)[C@H]1O[C@@]2(C)O[C@H](C(=O)[C@@H]3O[C@@]32C)[C@@H]1C"
  resultOperator: "="
  GI50 / µM: 18.4
- molecule: "C/C(=C\\C(=O)Nc1ccc2[nH]nnc2c1)Nc1ccc2[nH]nnc2c1"
  resultOperator: ">"
  GI50 / µM: 100
- molecule: "O=c1oc2ccccc2n1CCN1CCCCC1"
  resultOperator: ">"
  GI50 / µM: 100
- molecule: "CCOc1cc2c(cc1OC(C)=O)C(=O)CC[C@H]1C3CC[C@H](OC(C)=O)[C@@]3(C)CC[C@H]21 (some centres not stated)"
  resultOperator: ">"
  GI50 / µM: 100
- molecule: "C=C1c2nc3ccccc3n2C=C(c2ccc(C)cc2)N1c1ccc(OC)cc1"
  resultOperator: "="
  GI50 / µM: 9.51
- molecule: "O=C1C2C(C(=O)N1O)N(Cc1ccccc1)C(=O)N2Cc1ccccc1 (configuration not stated)"
  resultOperator: ">"
  GI50 / µM: 100

Reference for the values: ChEMBL document CHEMBL1201862
